target: CDK7 (human); test: KINOMEscan competition binding; settings: compound 10.0 µM
measure_name: kinase still bound, per cent of control

| compound | test_target | kinase still bound, per cent of control |
| --- | --- | --- |
| O=c1[nH]c2ccccc2n1C1CCN(Cc2ccc(-c3nc4cc5[nH]cnc5cc4nc3-c3ccccc3)cc2)CC1 | CDK7 (human) | 82% |
| CNC(=O)Nc1ccc(-c2nc(N3CC4CCC(C3)O4)c3cnn(C4CCC5(CC4)OCCO5)c3n2)cc1 | CDK7 (human) | 88% |
| CC1=C(C(=O)Nc2cc3cn[nH]c3cc2F)C(c2ccc(C(F)(F)F)cc2)CC(=O)N1 (centres undefined) | CDK7 (human) | 58% |

Lab note: compound COc1cc2c(Nc3ccc(NC(=O)c4ccccc4)cc3)ncnc2cc1OCCCN1CCOCC1 tested on CDK7 (human); recorded kinase still bound, per cent of control was 6.5%

----------
molecular target: PRKACB (human); test: KINOMEscan competition binding; conditions: compound 10.0 µM
Recorded kinase still bound, per cent of control, one value per entry.
I only need the number, in %, no unit after it.

Would you please look over these solved cases?
| compound | recorded_result |
| --- | --- |
| CCc1nc(-c2cccc(C)c2)c(-c2ccnc(NC(=O)c3ccccc3)c2)s1 | 95 |
| O=c1[nH]c2ccccc2n1C1CCN(Cc2ccc(-c3nc4cc5[nH]cnc5cc4nc3-c3ccccc3)cc2)CC1 | 100 |
| COc1ccc(N(C(=O)Oc2cc(C(=O)Nc3cccc(C(F)(F)F)c3)ccc2C)c2ccnc(Nc3ccc(N4CCN(C)CC4)cc3)n2)c(OC)c1 | 27 |
| Cc1cn(-c2cc(C(=O)Nc3ccc(C)c(NC(=O)c4ccno4)c3)cc(C(F)(F)F)c2)cn1 | 100 |
| CNC(=O)Nc1ccc(-c2nc(N3CC4CCC(C3)O4)c3cnn(C4CCC5(CC4)OCCO5)c3n2)cc1 | 87 |
| N#C/C(=C1/Nc2ccccc2S1)c1ccnc(NCCc2cccnc2)n1 | 100 |
| CCN1CCN(Cc2ccc(NC(=O)c3ccc(C)c(/C=C/c4cnc5[nH]ccc5c4OC)c3)cc2C(F)(F)F)CC1 | 100 |
| COc1cc2c(Nc3ccc(NC(=O)c4ccccc4)cc3)ncnc2cc1OCCCN1CCOCC1 | 100 |
| N#Cc1cc(-c2ccnc(Nc3ccc(-n4cnc(-c5cccnc5)n4)cc3)n2)cc(N2CCOCC2)c1 | 100 |
| CC(=O)c1c(C)c2cnc(Nc3ccc(N4CCNCC4)cn3)nc2n(C2CCCC2)c1=O | 100 |

According to the records, this compound CCN(CCO)CCCOc1ccc2c(Nc3cc(CC(=O)Nc4cccc(F)c4)[nH]n3)ncnc2c1 displays kinase still bound, per cent of control of 100

Field kinase still bound, per cent of control (entry C=CC(=O)Nc1ccc(C(=O)c2sc(Nc3ccc(N4CCN(C)CC4)cc3OC)nc2N)cc1 ) reads 92

kinase still bound, per cent of control for CCCS(=O)(=O)Nc1ccc(F)c(C(=O)c2c[nH]c3ncc(Cl)cc23)c1F is 100

----------
Property: kinase still bound, per cent of control; scope: individual compounds
target: VRK2 (human) (UniProt Q86Y07); experiment: KINOMEscan competition binding; conditions: compound 10.0 µM
Sequence (Q86Y07 whole entry, looked up): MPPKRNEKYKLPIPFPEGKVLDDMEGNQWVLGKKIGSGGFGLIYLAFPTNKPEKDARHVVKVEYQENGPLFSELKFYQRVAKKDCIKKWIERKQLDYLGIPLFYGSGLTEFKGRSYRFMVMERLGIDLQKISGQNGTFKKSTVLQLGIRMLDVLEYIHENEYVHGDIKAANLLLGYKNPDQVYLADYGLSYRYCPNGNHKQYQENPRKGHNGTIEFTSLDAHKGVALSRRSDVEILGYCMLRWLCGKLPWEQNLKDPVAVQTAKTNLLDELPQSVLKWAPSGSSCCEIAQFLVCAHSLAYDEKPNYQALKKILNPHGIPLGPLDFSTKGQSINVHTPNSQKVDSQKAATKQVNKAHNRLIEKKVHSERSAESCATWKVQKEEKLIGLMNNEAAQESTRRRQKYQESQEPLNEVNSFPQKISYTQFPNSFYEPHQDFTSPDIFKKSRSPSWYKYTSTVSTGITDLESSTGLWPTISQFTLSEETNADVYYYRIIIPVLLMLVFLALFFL
Answer format: numeric, % implied, no suffix.

| compound | kinase still bound, per cent of control, % |
| --- | --- |
| COc1cc2c(Nc3ccc(NC(=O)c4ccccc4)cc3)ncnc2cc1OCCCN1CCOCC1 | 100 |
| CC1=C(C(=O)Nc2cc3cn[nH]c3cc2F)C(c2ccc(C(F)(F)F)cc2)CC(=O)N1 (configuration not stated) | 87 |
| CCc1nc(-c2cccc(C)c2)c(-c2ccnc(NC(=O)c3ccccc3)c2)s1 | 63 |
| N#C/C(=C1/Nc2ccccc2S1)c1ccnc(NCCc2cccnc2)n1 | 100 |
| CNC(=O)Nc1ccc(-c2nc(N3CC4CCC(C3)O4)c3cnn(C4CCC5(CC4)OCCO5)c3n2)cc1 | 100 |

Here C=CC(=O)Nc1ccc(C(=O)c2sc(Nc3ccc(N4CCN(C)CC4)cc3OC)nc2N)cc1 was tested on VRK2 (human) (UniProt Q86Y07), and its kinase still bound, per cent of control came to 96

Item: O=c1[nH]c2ccccc2n1C1CCN(Cc2ccc(-c3nc4cc5[nH]cnc5cc4nc3-c3ccccc3)cc2)CC1 | System: VRK2 (human) (UniProt Q86Y07) | kinase still bound, per cent of control: 76

----------
target: STK10 (human) (UniProt O94804); assay: KINOMEscan competition binding; conditions: compound 10.0 µM
Sequence (O94804 whole entry, looked up): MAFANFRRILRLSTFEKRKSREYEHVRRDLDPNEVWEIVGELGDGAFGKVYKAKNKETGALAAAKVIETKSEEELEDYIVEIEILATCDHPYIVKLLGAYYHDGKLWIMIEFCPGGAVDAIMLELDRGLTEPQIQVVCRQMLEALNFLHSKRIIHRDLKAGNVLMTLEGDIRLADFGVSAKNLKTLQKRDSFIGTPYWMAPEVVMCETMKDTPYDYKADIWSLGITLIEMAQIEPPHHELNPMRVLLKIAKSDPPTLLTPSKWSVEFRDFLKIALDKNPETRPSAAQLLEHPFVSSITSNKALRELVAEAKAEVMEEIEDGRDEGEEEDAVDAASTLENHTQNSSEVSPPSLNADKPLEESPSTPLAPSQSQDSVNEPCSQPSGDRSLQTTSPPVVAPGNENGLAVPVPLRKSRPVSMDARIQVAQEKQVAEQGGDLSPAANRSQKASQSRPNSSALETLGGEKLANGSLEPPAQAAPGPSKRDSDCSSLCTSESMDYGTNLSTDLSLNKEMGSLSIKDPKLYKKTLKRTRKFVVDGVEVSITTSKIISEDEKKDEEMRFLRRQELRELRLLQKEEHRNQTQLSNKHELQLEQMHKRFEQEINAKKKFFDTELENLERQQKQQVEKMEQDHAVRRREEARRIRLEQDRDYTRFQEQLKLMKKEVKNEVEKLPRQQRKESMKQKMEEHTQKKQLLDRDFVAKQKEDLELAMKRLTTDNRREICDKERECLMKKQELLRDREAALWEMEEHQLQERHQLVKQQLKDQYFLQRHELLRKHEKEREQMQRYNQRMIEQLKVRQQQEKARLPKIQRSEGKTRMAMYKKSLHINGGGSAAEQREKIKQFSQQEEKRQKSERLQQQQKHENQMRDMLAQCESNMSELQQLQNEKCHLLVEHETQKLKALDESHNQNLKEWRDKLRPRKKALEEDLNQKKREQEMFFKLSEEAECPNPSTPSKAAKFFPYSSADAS
measure_name: kinase still bound, per cent of control (%)
Report as a plain number; the unit % is understood.

Example results:
| compound | test_target | kinase still bound, per cent of control [%] |
| --- | --- | --- |
| C=CC(=O)Nc1ccc(C(=O)c2sc(Nc3ccc(N4CCN(C)CC4)cc3OC)nc2N)cc1 | STK10 (human) (UniProt O94804) | 100 |
| Cc1cn(-c2cc(C(=O)Nc3ccc(C)c(NC(=O)c4ccno4)c3)cc(C(F)(F)F)c2)cn1 | STK10 (human) (UniProt O94804) | 100 |
| CC(=O)c1c(C)c2cnc(Nc3ccc(N4CCNCC4)cn3)nc2n(C2CCCC2)c1=O | STK10 (human) (UniProt O94804) | 23 |
| CC1=C(C(=O)Nc2cc3cn[nH]c3cc2F)C(c2ccc(C(F)(F)F)cc2)CC(=O)N1 (stereo not drawn) | STK10 (human) (UniProt O94804) | 100 |
| COc1cc2ncnc(Nc3cccc(Cl)c3)c2cc1OC | STK10 (human) (UniProt O94804) | 1.5 |

Form field kinase still bound, per cent of control for item CCN1CCN(Cc2ccc(NC(=O)c3ccc(C)c(/C=C/c4cnc5[nH]ccc5c4OC)c3)cc2C(F)(F)F)CC1 on STK10 (human) (UniProt O94804): 0

Field kinase still bound, per cent of control (system: STK10 (human) (UniProt O94804)) for entry CCOc1cc(N2CCC(O)CC2)ccc1Nc1ncc2c(n1)N(C)c1ccccc1C(=O)N2C = 100

The compound O=c1[nH]c2ccccc2n1C1CCN(Cc2ccc(-c3nc4cc5[nH]cnc5cc4nc3-c3ccccc3)cc2)CC1 , tested on STK10 (human) (UniProt O94804), showed kinase still bound, per cent of control of 65

Per the reported STK10 (human) (UniProt O94804) data, COc1ccc(N(C(=O)Oc2cc(C(=O)Nc3cccc(C(F)(F)F)c3)ccc2C)c2ccnc(Nc3ccc(N4CCN(C)CC4)cc3)n2)c(OC)c1 has kinase still bound, per cent of control of 0

Tested system STK10 (human) (UniProt O94804); kinase still bound, per cent of control recorded for COc1cc(N2CCC(C(N)=O)CC2)ccc1Nc1nc(N)c(Cl)c(Nc2ccccc2S(=O)(=O)C(C)C)n1 was 100

----------
target: STK33 (human) (UniProt Q9BYT3); experiment: KINOMEscan competition binding; settings: compound 10.0 µM
Sequence (Q9BYT3 whole entry, looked up): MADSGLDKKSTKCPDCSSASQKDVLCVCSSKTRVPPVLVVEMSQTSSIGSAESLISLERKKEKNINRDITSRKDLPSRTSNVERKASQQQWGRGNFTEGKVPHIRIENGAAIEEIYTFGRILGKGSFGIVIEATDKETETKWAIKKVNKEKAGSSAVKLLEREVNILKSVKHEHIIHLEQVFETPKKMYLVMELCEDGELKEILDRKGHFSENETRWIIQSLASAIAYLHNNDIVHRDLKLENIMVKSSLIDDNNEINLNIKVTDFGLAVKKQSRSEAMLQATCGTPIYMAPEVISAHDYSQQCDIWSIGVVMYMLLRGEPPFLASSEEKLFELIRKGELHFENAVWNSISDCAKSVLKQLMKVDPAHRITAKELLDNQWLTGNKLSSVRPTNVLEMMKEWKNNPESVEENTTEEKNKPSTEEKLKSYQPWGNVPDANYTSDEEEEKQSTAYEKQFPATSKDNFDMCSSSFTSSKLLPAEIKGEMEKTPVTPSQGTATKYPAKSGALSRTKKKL
measure_name: kinase still bound, per cent of control
Remember to quote the unit after the number.

Here are 4 molecules together with their reported answers.
| chem_smiles | recorded_result |
| --- | --- |
| COc1cc2ncnc(Nc3cccc(Cl)c3)c2cc1OC | 73% |
| CCCS(=O)(=O)Nc1ccc(F)c(C(=O)c2c[nH]c3ncc(Cl)cc23)c1F | 85% |
| N#C/C(=C1/Nc2ccccc2S1)c1ccnc(NCCc2cccnc2)n1 | 86% |
| COc1cc2c(Nc3ccc(NC(=O)c4ccccc4)cc3)ncnc2cc1OCCCN1CCOCC1 | 67% |

Okay, now this molecule:
The reported kinase still bound, per cent of control of the molecule CC(=O)c1c(C)c2cnc(Nc3ccc(N4CCNCC4)cn3)nc2n(C2CCCC2)c1=O was 24%

----------
target: CSNK1D (human); test: KINOMEscan competition binding; details: compound 10.0 µM
In plain terms, low kinase still bound, per cent of control, meaning strictly below 70%, gives satisfied, and everything else gives not satisfied.

Field: example entries. Status: answers known.
| molecule | test_target | category |
| --- | --- | --- |
| N#C/C(=C1/Nc2ccccc2S1)c1ccnc(NCCc2cccnc2)n1 | CSNK1D (human) | satisfied |
| N#Cc1cc(-c2ccnc(Nc3ccc(-n4cnc(-c5cccnc5)n4)cc3)n2)cc(N2CCOCC2)c1 | CSNK1D (human) | not satisfied |
| CC(=O)c1c(C)c2cnc(Nc3ccc(N4CCNCC4)cn3)nc2n(C2CCCC2)c1=O | CSNK1D (human) | satisfied |

Req: Confirm or reject: kinase still bound, per cent of control of COc1cc(C)c(Sc2cnc(NC(=O)c3ccc(CNC(C)C(C)C)cc3)s2)cc1C(=O)N1CCN(C(C)=O)CC1 (centres undefined) lies strictly below 70%
Resp: not satisfied

Req: Input CCN1CCN(Cc2ccc(NC(=O)c3ccc(C)c(/C=C/c4cnc5[nH]ccc5c4OC)c3)cc2C(F)(F)F)CC1 ; condition: kinase still bound, per cent of control strictly below 70%. Does it hold?
Resp: satisfied

Req: Lab log: compare recorded kinase still bound, per cent of control with 70%; is it strictly lower for CNC(=O)Nc1ccc(-c2nc(N3CC4CCC(C3)O4)c3cnn(C4CCC5(CC4)OCCO5)c3n2)cc1 ?
Resp: not satisfied

Req: In plain terms, does CCCS(=O)(=O)Nc1ccc(F)c(C(=O)c2c[nH]c3ncc(Cl)cc23)c1F come in under 70% for kinase still bound, per cent of control?
Resp: not satisfied

Req: Please check: kinase still bound, per cent of control for O=c1[nH]c2ccccc2n1C1CCN(Cc2ccc(-c3nc4cc5[nH]cnc5cc4nc3-c3ccccc3)cc2)CC1 , strictly under 70% or not?
Resp: satisfied
